molecular target: Glucocorticoid receptor (Homo sapiens); test: GR-EFC Redistribution (AID 451); details: CHO-K1 GR-EFC translocation, beta-gal luminescence, 2 h; also: potency is read from the fitted curve at half-maximal effect
The source made the active and inactive calls. Calls follow the shape of the full dose curve.
Value Kind: Potency

Examples with their reported Potency follow.
Compound	Test Target	Potency
O=C(O)CCC(=O)N1CCC[C@H]1C(=O)O	Glucocorticoid receptor (Homo sapiens)	> 46 µM (inactive)
N#CC[N+]1(Cc2ccccn2)CCCC1	Glucocorticoid receptor (Homo sapiens)	> 9.22 µM (inactive)

What reported Potency corresponds to Nc1ccccc1SCc1csc(-c2ccc(Cl)cc2)n1 on Glucocorticoid receptor (Homo sapiens)?
> 9.22 µM (inactive)

What reported Potency corresponds to CC(C)=C[C@H]1[C@@H](C(=O)Oc2ccccc2C(C)C)C1(C)C on Glucocorticoid receptor (Homo sapiens)?
> 9.22 µM (inactive)

What reported Potency corresponds to CN1CCc2nc(N)nc(-c3nc(N)nc4c3CN(C)CC4)c2C1 on Glucocorticoid receptor (Homo sapiens)?
> 9.22 µM (inactive)

What reported Potency corresponds to C(=Nc1ccc2c(c1)Cc1ccccc1-2)c1ccccn1 on Glucocorticoid receptor (Homo sapiens)?
> 9.22 µM (inactive)

What reported Potency corresponds to CC(C)C(=O)C(C)(C)CCc1ccccn1 on Glucocorticoid receptor (Homo sapiens)?
> 9.22 µM (inactive)

What reported Potency corresponds to O=C(O)[C@@H]1[C@@H]2C[C@@H]3[C@@H](OC(=O)[C@@H]31)[C@H]2Br on Glucocorticoid receptor (Homo sapiens)?
> 9.22 µM (inactive)

What reported Potency corresponds to CN(CC(=O)O)Cc1c[nH]c2ccccc12 on Glucocorticoid receptor (Homo sapiens)?
> 9.22 µM (inactive)

What reported Potency corresponds to O=[N+]([O-])c1ccc(S(=O)(=O)Cc2ccccc2)c2nonc12 on Glucocorticoid receptor (Homo sapiens)?
> 9.22 µM (inactive)

What reported Potency corresponds to NC(N)=NC(N)=Nc1ccccc1 (tested in a mixture with another compound) on Glucocorticoid receptor (Homo sapiens)?
> 9.22 µM (inactive)

====

molecular target: Luciferin 4-monooxygenase (Photinus pyralis) (UniProt P08659); assay: Biochemical firefly luciferase enzyme assay for NPC (AID 624030);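 also: purified P. pyralis luciferase at 10 nM with luciferin and ATP substrate; 0% = DMSO and -100% = full luciferase inhibition by PTC124 control; nearly all actives have a fitted effect of over 70% in size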; details: purified P. pyralis luciferase, luminescence, 5 min; series mostly up to 58.6 µM
Sequence (P08659 whole entry, looked up): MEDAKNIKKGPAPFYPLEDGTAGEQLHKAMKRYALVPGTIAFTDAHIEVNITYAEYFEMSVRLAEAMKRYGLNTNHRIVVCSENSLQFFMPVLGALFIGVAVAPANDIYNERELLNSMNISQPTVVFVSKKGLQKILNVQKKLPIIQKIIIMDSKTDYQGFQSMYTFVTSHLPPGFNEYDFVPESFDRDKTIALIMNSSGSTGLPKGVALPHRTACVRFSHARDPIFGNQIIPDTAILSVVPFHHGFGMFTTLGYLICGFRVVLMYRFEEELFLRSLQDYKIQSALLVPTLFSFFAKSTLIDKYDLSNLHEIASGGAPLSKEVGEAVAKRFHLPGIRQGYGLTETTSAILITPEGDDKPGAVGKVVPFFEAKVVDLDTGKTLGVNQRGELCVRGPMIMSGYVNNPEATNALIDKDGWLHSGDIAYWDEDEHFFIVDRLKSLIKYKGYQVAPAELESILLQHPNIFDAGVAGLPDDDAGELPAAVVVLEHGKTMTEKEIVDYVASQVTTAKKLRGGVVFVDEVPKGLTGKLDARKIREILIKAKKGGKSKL
Results filed as inconclusive are left out. Active and inactive are the calls of the source. The call rests on the fitted dose curve; in most records, active means well fitted inhibition curve with a large enough effect; inconclusive means small, poorly fitted or top-dose-only effect; inactive means flat fitted curve, though single readings scatter.

Given Smiles	outcome
COc1cc2nc(N(C)CCCNC(=O)[C@@H]3CCCO3)nc(N)c2cc1OC	inactive
C=C(NC(=O)C(=C)NC(=O)c1csc(C2=N[C@@H]3c4csc(n4)[C@@H]4NC(=O)c5csc(n5)[C@@H]([C@](C)(O)[C@H](C)O)NC(=O)[C@@H]5CSC(=N5)/C(=C/C)NC(=O)[C@@H]([C@H](C)O)NC(=O)c5csc(n5)[C@]3(CC2)NC(=O)[C@@H](C)NC(=O)C(=C)NC(=O)[C@@H](C)NC(=O)[C@@H]([C@@H](C)CC)N[C@H]2C=Cc3c([C@H](C)O)cc(nc3[C@@H]2O)C(=O)O[C@H]4C)n1)C(N)=O	inactive
O=C(O)[C@@H](O)[C@@H](O)[C@H](O)[C@H](O)CO	inactive

====

molecular target: Cytochrome P450 1A2 (Homo sapiens) (UniProt P05177); assay: p450-cyp1a2 (AID 410); settings: recombinant CYP1A2, luciferin-ME demethylation, luminescence; series mostly up to 11.4 µM
Sequence (P05177 whole entry, looked up): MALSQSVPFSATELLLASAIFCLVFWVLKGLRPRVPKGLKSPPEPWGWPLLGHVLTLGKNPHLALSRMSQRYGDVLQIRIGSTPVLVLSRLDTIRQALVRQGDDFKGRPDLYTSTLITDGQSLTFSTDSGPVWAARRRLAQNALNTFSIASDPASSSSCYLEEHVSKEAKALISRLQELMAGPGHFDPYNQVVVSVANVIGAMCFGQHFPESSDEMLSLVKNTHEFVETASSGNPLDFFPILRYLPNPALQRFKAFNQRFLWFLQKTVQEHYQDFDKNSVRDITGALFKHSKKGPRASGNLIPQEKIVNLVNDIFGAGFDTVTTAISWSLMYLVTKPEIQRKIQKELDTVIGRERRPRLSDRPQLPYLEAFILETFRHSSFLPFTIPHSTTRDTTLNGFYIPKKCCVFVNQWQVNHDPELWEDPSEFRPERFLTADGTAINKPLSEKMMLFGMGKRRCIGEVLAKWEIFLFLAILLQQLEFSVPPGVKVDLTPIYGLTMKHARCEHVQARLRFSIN
Results filed as inconclusive are left out. The source made the active and inactive calls. The call rests on the fitted dose curve.
Pick one and only one: active, inactive

Compound	Test Target	Class Label
C[C@H]1C[C@H]2[C@H]3CCC4=CC(=O)C=C[C@@]4(C)[C@]3(F)[C@H](O)C[C@]2(C)[C@@]1(O)C(=O)COP(=O)(O)O	Cytochrome P450 1A2 (Homo sapiens) (UniProt P05177)	inactive
CC(C)C(O)(C(C)C)C(C)C	Cytochrome P450 1A2 (Homo sapiens) (UniProt P05177)	inactive
C[C@H]1[C@H](C)OC(=O)C[C@H](O)C[C@H](O)C[C@H](O)CC[C@H](O)[C@H](O)CC(=O)C[C@H](O)[C@H](C(=O)O)[C@H](O)C[C@H](O[C@@H]2O[C@@H](C)[C@H](O)[C@@H](N)[C@@H]2O)C=CC=CC=CC=CCCC=CC=C[C@@](C)(O)[C@H]1O	Cytochrome P450 1A2 (Homo sapiens) (UniProt P05177)	inactive
COc1ncc2nc(CCc3ccccc3)c(=O)n(C)c2n1	Cytochrome P450 1A2 (Homo sapiens) (UniProt P05177)	active
CC(C)N(CC(=O)O)CC(=O)O	Cytochrome P450 1A2 (Homo sapiens) (UniProt P05177)	inactive

Outcome? O=C1Nc2ccccc2C1=Nc1ccc(S(=O)(=O)Nc2nccs2)cc1
inactive

Outcome? O=C(O)c1ccccc1/C=N\N=C1c2ccccc2-c2ccccc21
active

Outcome? CN(C)CCNc1ccccn1
inactive

Outcome? COc1ccc2cc(C(=O)CCC(=O)O)ccc2c1
active

Outcome? Nc1cc(C(=O)O)[nH]c(=O)n1
inactive

Outcome? CC1CCN(CC(=O)N2c3ccccc3Sc3cc4ccccc4cc32)CC1
active

Outcome? CCn1cc(C(=O)O)c(=O)c2ccc(Cc3ccccc3)nc21
inactive

Outcome? CN1C[C@@H](O)[C@@H](O)[C@@H](O)[C@@H]1CO
inactive

Outcome? O=C(O)CCSC1=NCCN1
inactive

Outcome? COc1cc2nncc(SCc3ccc(Cl)c(Cl)c3)c2cc1OC
active

Outcome? O=C(O)CCNc1ncnc2nc[nH]c12
inactive

Outcome? Nc1cc2c(nc3c4ccccc4c(N)cc3[n+]2-c2cccc3ccccc23)c2ccccc12 (tested in a mixture with another compound)
active

Outcome? O[C@H](CNc1ccccn1)c1ccccc1
inactive

Outcome? C(=Nc1cnc2ccccc2c1)c1ccc2ccccc2n1
active

Outcome? Cc1cc2ccccc2c[n+]1CC(O)C[n+]1cc2ccccc2cc1C
inactive

Outcome? O=C(O)[C@@H]1CCCN1Cc1c[nH]c2ccccc12
inactive

Outcome? O=C(O)CC[C@]1(C(=O)O)CCC(=O)c2ccccc21
inactive

====

molecular target: Peroxisome proliferator-activated receptor gamma (Homo sapiens) (UniProt P37231); test: qHTS assay for small molecule antagonists of peroxisome proliferator-activated receptor gamma signaling (AID 588537); conditions: HEK293 PPARg-UAS-bla, beta-lactamase ratio, antagonist mode; series mostly up to 76.8 µM;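 also: reporter cells co-stimulated with 50 nM rosiglitazone agonist during compound treatment; % of control where 0% means no effect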
Sequence (P37231 whole entry, looked up): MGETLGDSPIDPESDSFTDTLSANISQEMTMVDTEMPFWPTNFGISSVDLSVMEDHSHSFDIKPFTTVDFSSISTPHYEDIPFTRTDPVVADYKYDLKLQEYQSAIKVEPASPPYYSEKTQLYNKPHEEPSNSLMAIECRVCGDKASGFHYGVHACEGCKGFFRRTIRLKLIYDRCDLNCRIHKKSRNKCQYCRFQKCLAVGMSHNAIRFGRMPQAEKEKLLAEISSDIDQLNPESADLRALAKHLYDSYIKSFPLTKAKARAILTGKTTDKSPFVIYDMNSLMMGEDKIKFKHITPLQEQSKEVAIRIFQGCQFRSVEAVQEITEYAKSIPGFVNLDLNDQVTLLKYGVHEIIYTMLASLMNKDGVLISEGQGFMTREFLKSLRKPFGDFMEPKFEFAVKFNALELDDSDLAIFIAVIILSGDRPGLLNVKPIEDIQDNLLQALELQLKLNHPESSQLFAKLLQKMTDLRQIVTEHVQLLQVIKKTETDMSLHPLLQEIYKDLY
Inconclusive results are not listed. The source made the active and inactive calls. Calls follow the shape of the dose curve; as a rule, active = well fitted inhibition curve with a large enough effect in the signal ratio, with a control signal flat (not every such curve was filed as active); inconclusive = small, poorly fitted or top-dose-only effect, or effect the other way, or a change in a side signal; inactive = flat fitted curve, though single readings scatter; the % refers to the signal ratio.
Value Kind: outcome

Examples with their reported outcome follow.
Compound	Value Kind	Assay Value
S=C(NC1CCCCC1)NC1CCCCC1	outcome	inactive
CCCCCCCCC1CO1 (stereo not drawn)	outcome	inactive
c1ccncc1	outcome	inactive
Brc1cc(Oc2cc(Br)c(Br)c(Br)c2Br)c(Br)c(Br)c1Br	outcome	inactive
CCCCC(CC)COP(=O)(OCC(CC)CCCC)OCC(CC)CCCC (stereo not drawn)	outcome	inactive
C=CC1CO1 (stereo not drawn)	outcome	inactive

For the compound CCOC(=O)C1OC1c1ccccc1 (stereo not drawn) , what outcome is on record?
inactive

For the compound CC(=O)OC1CC(C)OC(C)O1 (stereo not drawn) , what outcome is on record?
inactive

====

experiment: Cell Viability - LYMP1-002 - Assay at 40 hr (AID 994); conditions: LYMP1-002 lymphoblastoid cell viability; series mostly up to 92.2 µM;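 also: 0% = DMSO only and full inhibition = 92 µM tetraoctylammonium bromide; nearly all actives have a fitted effect of over 60% in size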
Records with an inconclusive call do not appear. Activity calls are given as the source filed them. The call rests on the fitted dose curve; in most records, active means well fitted cell-killing curve with a large enough effect; inconclusive means small, poorly fitted or top-dose-only effect; inactive means flat fitted curve, though single readings scatter.
Value Kind: outcome

Molecule	outcome
CCCCCCc1ccc(-c2ccc(C#N)cc2)cc1	inactive
O=C(Cl)c1ccc([N+](=O)[O-])cc1	inactive
Nc1cc(C(=O)O)c(O)c(S(=O)(=O)O)c1	inactive
Cc1ccc2ccc3cccc4ccc1c2c34	inactive
O=[N+]([O-])c1cc(Cl)c(Cl)c(Cl)c1Cl	inactive
CC(CCC(=O)O)(c1ccc(O)cc1)c1ccc(O)cc1	inactive
CCc1ccc(C(c2ccc(CC)cc2)C(Cl)Cl)cc1	inactive
CC(/C=C/C=C(C)/C=C/C(=O)O)=C\C=C\C=C(C)\C=C\C=C(C)\C=C\C(=O)O	inactive

For the molecule COc1ccc(C(=O)Nc2ccccc2)cc1[N+](=O)[O-] , what outcome is on record?
inactive

For the molecule CC(=O)Nc1cccc(C)c1 , what outcome is on record?
inactive

For the molecule Oc1c(Cl)cc(Cl)c(Cl)c1Cl , what outcome is on record?
inactive

For the molecule O=C(OCc1ccccc1)c1ccccc1O , what outcome is on record?
inactive

For the molecule C=CC(C)(O)CCCC(C)CCCC(C)CCCC(C)C (stereo unspecified) , what outcome is on record?
inactive

For the molecule C=CC1CO1 (stereo unspecified) , what outcome is on record?
inactive

For the molecule CCCCOC(=O)COc1ccc(Cl)cc1Cl , what outcome is on record?
inactive

For the molecule C=C(C#N)C(=O)OCC , what outcome is on record?
inactive

====

target: Estrogen receptor (Homo sapiens); test: qHTS assay for small molecule agonists of estrogen receptor alpha signaling (AID 588514); details: ER-alpha-UAS-bla HEK293, beta-lactamase ratio, 18 h; series mostly up to 76.8 µM; also: nearly all actives have a fitted effect of over 70% in size
Results filed as inconclusive are left out. Active and inactive are the calls of the source. Calls follow the shape of the full dose curve.
Pick one and only one: 1 = active, -1 = inactive

Compound	Class Label
CCCCC(CC)COCCCN (configuration not stated)	-1
C/C(Cl)=C/CCl	-1
O=[N+]([O-])c1cc(N(CCO)CCO)ccc1NCCO	-1
O=c1[nH]ncc2ccccc12	-1
CC(C)(C)C(=O)C1C(=O)c2ccccc2C1=O	-1

Outcome? CC(CCC(=O)O)(c1ccc(O)cc1)c1ccc(O)cc1
1

Outcome? Cc1cc(-c2ccc(N=Nc3cc(S(=O)(=O)O)c4ccccc4c3N)c(C)c2)ccc1N=Nc1cc(S(=O)(=O)O)c2ccccc2c1N
-1

Outcome? O=C(OCc1ccccc1)c1ccccc1O
-1

Outcome? CC(C)COC(=O)COc1cc(Cl)c(Cl)cc1Cl
-1

Outcome? COc1ccc(C)cc1N
-1

Outcome? O=C1c2ccccc2C(=O)C1(O)O
-1

Outcome? O=[N+]([O-])c1ccc(F)cc1F
-1

Outcome? S=C(NC1CCCCC1)NC1CCCCC1
-1

Outcome? N[C@@H](Cc1ccccc1)C(=O)O
1

Outcome? O=C1OC(=O)c2ccccc21
-1

Outcome? Nc1ccccc1O
-1

Outcome? C[Si](C)(C)Cl
-1
